Assay: ATG_PXRE_CIS: Attagene CIS-FACTORIAL HepG2 Assay for human Pregnane X Receptor Element (PXRE) (AID 2282957)
Settings: HepG2 Attagene CIS-FACTORIAL PXRE reporter, mRNA; actives raise or lower the signal
Active and inactive are the calls of the source. The calls were made as follows: active = hit-call score of the fitted dose curve at least 0.9, where 1 is the maximum; inactive = score below 0.9.
Outcomes you can answer with include only these: active, inactive

Some entries whose results are on file:
>  <compound>
CC(=O)/C=C/C1=C(C)CCCC1(C)C

>  <assigned_class>
active

$$$$
>  <compound>
O=C(O)c1ccc([N+](=O)[O-])cc1

>  <assigned_class>
inactive

$$$$
>  <compound>
CC(=O)Nc1ccc(C)cc1C

>  <assigned_class>
inactive

$$$$
>  <compound>
COC(=O)OC

>  <assigned_class>
inactive

$$$$
>  <compound>
CC(C)(C#N)c1cc(Cn2cncn2)cc(C(C)(C)C#N)c1

>  <assigned_class>
active

$$$$

Ask | Hi, do you know how CCC(C)(O)CCC=C(C)C (configuration not stated) came out in this test?
Reply | inactive

Ask | Follow-up entry: `c1ccc(CCCc2ccccn2)cc1`
Reply | active

###

Read-out: CD38, CD38 (gene 952)
Experiment: BSK_SAg_CD38: BioMAP Diversity Plus: SAg Assay for CD38 Biomarker Activity (AID 2283087)
Settings: primary human HUVEC with PBMC; actives raise or lower the signal
Active and inactive are the calls of the source. Rule for the calls: active = hit-call score of the fitted dose curve at least 0.9, where 1 is the maximum; inactive = score below 0.9.
Outcomes you can answer with include only these: class 1 = active, class 0 = inactive

Some entries whose results are on file:
>  <molecule>
O=P(c1ccccc1)(c1ccccc1)c1ccccc1

>  <assigned_class>
class 0

$$$$
>  <molecule>
O=C(O)c1cn(-c2ccc(F)cc2)c2cc(N3CCNCC3)c(F)cc2c1=O

>  <assigned_class>
class 0

$$$$
>  <molecule>
CNC[C@H](O)c1cccc(O)c1

>  <assigned_class>
class 0

$$$$
>  <molecule>
CCCCC/C=C/C=C/C=O

>  <assigned_class>
class 1

$$$$
>  <molecule>
C=CCOC(=O)CCC1CCCCC1

>  <assigned_class>
class 0

$$$$
>  <molecule>
C=C(C)C(=O)O[C@H]1C[C@@H]2CC[C@@]1(C)C2(C)C

>  <assigned_class>
class 1

$$$$
>  <molecule>
CCn1c2ccccc2c2cc(N)ccc21

>  <assigned_class>
class 1

$$$$
>  <molecule>
Cc1cc(C2(c3cc(C)c(O)cc3C)OS(=O)(=O)c3ccccc32)c(C)cc1O

>  <assigned_class>
class 0

$$$$

We next turn to a different molecule, shown below.
Ask | Hi, do you know how CC(=O)OCCC(C)CC(C)(C)C (centres undefined) came out in this test?
Reply | class 0

###

Read-out: Actin alpha 1 (ACTA1), ACTA1 (gene 58)
Experiment: BSK_MyoF_ACTA1: BioMAP Diversity Plus: MyoF Assay for Actin alpha 1 (ACTA1) Biomarker Activity (AID 2284244)
Conditions: primary human lung fibroblasts
Calls of active or inactive are those of the source. Rule for the calls: active = hit-call score of the fitted dose curve at least 0.9, where 1 is the maximum; inactive = score below 0.9.
readout_name: AC50

# example entries with known answers
>  <compound>
CCCCCCCCC=O

>  <result>
inactive

$$$$
>  <compound>
C=C(C)C(=O)O[C@H]1C[C@@H]2CC[C@@]1(C)C2(C)C

>  <result>
33.1 µM (active)

$$$$
>  <compound>
BrC1CCC(Br)C(Br)CCC(Br)C(Br)CCC1Br (configuration not stated)

>  <result>
inactive

$$$$
>  <compound>
C=C[Si](OCC)(OCC)OCC

>  <result>
inactive

$$$$
>  <compound>
CC1CCC(C(C)CS)CC1S (configuration not stated)

>  <result>
9.28 µM (active)

$$$$

Ask | Fill blank: measured AC50 of the compound `CC(C)Oc1ccccc1O` is ____.
Reply | inactive

Ask | Follow-up entry: `O=[N+]([O-])c1cc(C(F)(F)F)ccc1Cl`
Reply | inactive

###

Target: Nuclear respiratory factor 1 (Homo sapiens)
Assay: ATG_NRF1_CIS: Attagene CIS-FACTORIAL HepG2 Assay for human Nuclear Respiratory Factor 1 (NRF1) Orphan Gene (AID 2282987)
Conditions: HepG2 NRF1 cis-element reporter, Attagene multiplex; actives raise or lower the signal
The source made the active and inactive calls. How the source made its calls: active means hit-call score of the fitted dose curve at least 0.9, where 1 is the maximum; inactive means score below 0.9.
Outcomes you can answer with include only these: class 1 (active), class 0 (inactive)

Some entries whose results are on file:
>  <compound>
OCCOCCOCCOCCO

>  <assigned_class>
class 0

$$$$
>  <compound>
C=C(C)C(=O)Nc1ccc(Cl)c(Cl)c1

>  <assigned_class>
class 0

$$$$
>  <compound>
O=S(=O)(O)NC1CCCCC1

>  <assigned_class>
class 0

$$$$
>  <compound>
OCCOc1cccc(OCCO)c1

>  <assigned_class>
class 0

$$$$
>  <compound>
CCCCCCCCCCCCOCCO

>  <assigned_class>
class 1

$$$$
>  <compound>
O=Cc1ccc(Cl)c([N+](=O)[O-])c1

>  <assigned_class>
class 1

$$$$
>  <compound>
O=S(=O)(O)c1cccc2c(S(=O)(=O)O)cccc12

>  <assigned_class>
class 0

$$$$
>  <compound>
CC(=O)Nc1ccc(CC(=O)O)cc1

>  <assigned_class>
class 0

$$$$

Ask | Hi, do you know how `Cc1c(N(C)C)c(=O)n(-c2ccccc2)n1C` came out in this test?
Reply | class 0

Ask | Follow-up entry: `CN(C)c1ccc(O)c2c1C[C@H]1C[C@H]3[C@H](N(C)C)C(=O)C(C(N)=O)=C(O)[C@@]3(O)C(=O)C1=C2O`
Reply | class 0

Ask | Follow-up entry: `Clc1sc(Cl)c(Cl)c1Cl`
Reply | class 0

Ask | Follow-up entry: CC1CCC(C(C)(C)O)CC1 (stereo not given)
Reply | class 0

###

Read-out: Interleukin 17A (IL17A), IL17A (gene 3605)
Assay: BSK_BT_xIL17A: BioMAP Diversity Plus: BT Assay for Interleukin 17A (IL17A) Biomarker Activity (AID 2284229)
Conditions: primary human B cells with PBMC
The source made the active and inactive calls. How the source made its calls: active means hit-call score of the fitted dose curve at least 0.9, where 1 is the maximum; inactive means score below 0.9.
Outcomes you can answer with include only these: true (active), false (inactive)

Some entries whose results are on file:
>  <compound>
O=C1OC2(c3cc(Br)c(O)c(Br)c3Oc3c2cc(Br)c(O)c3Br)c2c(Cl)c(Cl)c(Cl)c(Cl)c21

>  <assigned_class>
true

$$$$
>  <compound>
CC(=O)Nc1ccccc1O

>  <assigned_class>
false

$$$$

Ask | Hi, do you know how `CCn1c2ccccc2c2cc(N)ccc21` came out in this test?
Reply | false

Ask | Follow-up entry: `CC(=O)O[C@]1(C(C)=O)CC[C@H]2[C@@H]3C[C@H](C)C4=CC(=O)CC[C@]4(C)[C@H]3CC[C@@]21C`
Reply | false

Ask | Follow-up entry: `O=P(c1ccccc1)(c1ccccc1)c1ccccc1`
Reply | false

Ask | Follow-up entry: BrC1CCC(Br)C(Br)CCC(Br)C(Br)CCC1Br (stereo not given)
Reply | true

Ask | Follow-up entry: `CCCCC/C=C/C=C/C=O`
Reply | true

Ask | Follow-up entry: `c1ccc2sc(SN(C3CCCCC3)C3CCCCC3)nc2c1`
Reply | false

Ask | Follow-up entry: `Cc1ccc(Nc2ccc(O)c3c2C(=O)c2ccccc2C3=O)cc1`
Reply | false

Ask | Follow-up entry: `O=C(O)c1cn(-c2ccc(F)cc2)c2cc(N3CCNCC3)c(F)cc2c1=O`
Reply | false

###

Assay: ATG_PXRE_CIS: Attagene CIS-FACTORIAL HepG2 Assay for human Pregnane X Receptor Element (PXRE) (AID 2282957)
Conditions: HepG2 Attagene CIS-FACTORIAL PXRE reporter, mRNA; actives raise or lower the signal
Calls of active or inactive are those of the source. The calls were made as follows: active = hit-call score of the fitted dose curve at least 0.9, where 1 is the maximum; inactive = score below 0.9.
readout_name: AC50

# example entries with known answers
>  <molecule>
CC(=O)C=CC1=C(C)CCCC1(C)C

>  <readout_name>
AC50

>  <result>
0.716 µM (active)

$$$$
>  <molecule>
O=CCCc1ccccc1

>  <readout_name>
AC50

>  <result>
23.6 µM (active)

$$$$
>  <molecule>
CCCCOCCOCCOCCOCCO

>  <readout_name>
AC50

>  <result>
27.5 µM (active)

$$$$
>  <molecule>
CCCCNC(=O)NS(=O)(=O)c1ccc(C)cc1

>  <readout_name>
AC50

>  <result>
inactive

$$$$
>  <molecule>
Nc1cc([N+](=O)[O-])ccc1Cl

>  <readout_name>
AC50

>  <result>
inactive

$$$$
>  <molecule>
CN1[C@@H]2CC(OC(=O)[C@H](CO)c3ccccc3)C[C@H]1[C@@H]1O[C@@H]12 (stereo partly drawn)

>  <readout_name>
AC50

>  <result>
inactive

$$$$
>  <molecule>
O=C1NC(=O)c2ccccc21

>  <readout_name>
AC50

>  <result>
38.5 µM (active)

$$$$
>  <molecule>
CCCCCCCCCCN

>  <readout_name>
AC50

>  <result>
inactive

$$$$
>  <molecule>
C/C=C(\C)C(=O)OCc1ccccc1

>  <readout_name>
AC50

>  <result>
inactive

$$$$
>  <molecule>
CN(C)CCOCCN(C)C

>  <readout_name>
AC50

>  <result>
inactive

$$$$

Ask | Fill blank: measured AC50 of the molecule `O=[N+]([O-])c1ccc(C=Cc2ccc([N+](=O)[O-])cc2S(=O)(=O)O)c(S(=O)(=O)O)c1` is ____.
Reply | inactive

Ask | Follow-up entry: `CCc1ccc(C=O)cc1`
Reply | inactive

Ask | Follow-up entry: `CC(C)(C)C(=O)c1ccccc1`
Reply | 53 µM (active)

Ask | Follow-up entry: `Cc1ccc(C(=O)O)o1`
Reply | inactive

Ask | Follow-up entry: CCC(=O)OCCC(C)CCC=C(C)C (stereo not drawn)
Reply | 41.1 µM (active)

Ask | Follow-up entry: CC1(CO)CN(c2ccccc2)NC1=O (stereo not drawn)
Reply | inactive
